These entries and their values trace back to paper PMC9719519.

Target system: prohibitin 2 (PHB2) (Homo sapiens, UniProt Q99623)
Sequence (Q99623 1-194): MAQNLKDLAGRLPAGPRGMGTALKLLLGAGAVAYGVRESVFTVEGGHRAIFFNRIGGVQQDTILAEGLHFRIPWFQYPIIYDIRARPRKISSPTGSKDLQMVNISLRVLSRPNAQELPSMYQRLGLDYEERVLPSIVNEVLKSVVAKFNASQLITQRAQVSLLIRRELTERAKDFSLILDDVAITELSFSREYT
Assay: SPR on purified recombinant PHB2 […]-194; DSF shift […] °C; DARTS in cells
Measured attribute: Kd (µM)
Note: unit µM is implicit; provide only the numeric part.

GET /values?readout=Kd&item= C1=C(c2nc(-c3cnn(C4CCNCC4)c3)cn3cc(-c4ccccc4)nc23)CCOC1 [YL-939]
3.43
